Experiment: Selectivity for porcine mu calpain over human cathepsin B
assayMetric: Ratio Ki

I: CC(C)N(CCOCc1ccccc1)C(=O)N[C@H](C=O)Cc1ccccc1
II: CC(C)CN(CCOCc1ccccc1)C(=O)N[C@H](C=O)Cc1ccccc1
III: CC(C)CC(C(=O)N[C@H](C=O)Cc1ccccc1)C(=O)OCc1ccccc1 (some centres undefined)
IV: CC(C)C(C(=O)N[C@H](C=O)Cc1ccccc1)C(=O)OCc1ccccc1 (some centres undefined)
Consider the compounds listed above. Rank them by Ratio Ki in ascending numerical order. Returns: the labels arranged in the requested order.
IV, III, I, II
(IV: 2, III: 8, I: 96.1, II: 222)

---

Measurement record for Cathepsin B (Homo sapiens); quantity recorded: Ki.
assayMetric: Ki (µM)

A: CC(C)CC(C(=O)N[C@H](C=O)Cc1ccccc1)C(=O)OCc1ccccc1 (some centres not stated)
B: CC(C)CN(CCOCc1ccccc1)C(=O)N[C@H](C=O)Cc1ccccc1
Which shows the larger Ki value: A or B ? Please indicate the selected item by its label.
B

---

Biological target: Calpain-1 catalytic subunit (Sus scrofa, UniProt P35750)
Sequence (P35750 whole entry): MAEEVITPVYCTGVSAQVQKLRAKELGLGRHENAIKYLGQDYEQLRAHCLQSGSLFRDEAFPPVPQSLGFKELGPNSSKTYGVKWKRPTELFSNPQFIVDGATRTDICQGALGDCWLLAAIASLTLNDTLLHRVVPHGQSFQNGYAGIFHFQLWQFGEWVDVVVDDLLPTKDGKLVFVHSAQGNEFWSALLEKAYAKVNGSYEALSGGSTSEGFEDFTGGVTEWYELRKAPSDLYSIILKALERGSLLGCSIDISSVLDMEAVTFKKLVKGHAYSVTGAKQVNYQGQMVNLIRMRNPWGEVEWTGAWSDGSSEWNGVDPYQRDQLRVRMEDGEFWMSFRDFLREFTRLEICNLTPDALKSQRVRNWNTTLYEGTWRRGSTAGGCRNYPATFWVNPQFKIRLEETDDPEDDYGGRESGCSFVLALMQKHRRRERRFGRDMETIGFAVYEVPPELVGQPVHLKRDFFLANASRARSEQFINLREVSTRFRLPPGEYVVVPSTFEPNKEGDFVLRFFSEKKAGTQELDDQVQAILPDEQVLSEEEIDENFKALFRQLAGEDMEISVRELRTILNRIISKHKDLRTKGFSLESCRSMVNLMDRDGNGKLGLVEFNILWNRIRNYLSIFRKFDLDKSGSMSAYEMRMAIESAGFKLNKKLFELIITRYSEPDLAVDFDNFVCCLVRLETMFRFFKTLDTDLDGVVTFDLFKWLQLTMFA
Experiment: Inhibition of mu calpain in porcine erythrocyte
assayMetric: Ki (nM)

Example cases with answers are listed next.
compound	assayMetric	endpointValue
CC(C)CN(CCOCc1ccccc1)C(=O)N[C@H](C=O)Cc1ccccc1	Ki	150
CC(C)C(C(=O)N[C@H](C=O)Cc1ccccc1)C(=O)OCc1ccccc1 (stereo partly drawn)	Ki	10
CC(C)N(CCc1ccccc1)C(=O)N[C@H](C=O)Cc1ccccc1	Ki	2350
CC(C)N(Cc1ccccc1)C(=O)N[C@H](C=O)Cc1ccccc1	Ki	6820
CC(C)CN(CCOCc1ccccc1)C(=O)NCC=O	Ki	88700

a: CCN(CCOCc1ccccc1)C(=O)N[C@H](C=O)Cc1ccccc1
b: CC(C)N(CCOCc1ccccc1)C(=O)N[C@H](C=O)Cc1ccccc1
Lab note: check whether a or b shows the higher recorded Ki. Select an item and report its label.
a

---

Molecular target: Calpain-1 catalytic subunit (Sus scrofa, UniProt P35750)
Experiment: Inhibition of mu calpain in porcine erythrocyte
assayMetric: Ki (µM)

compound	assayMetric	unitsOfMeasure	endpointValue
CN(CCOCc1ccccc1)C(=O)N[C@H](C=O)Cc1ccccc1	Ki	µM	6.69
CC(C)CC(C(=O)N[C@H](C=O)Cc1ccccc1)C(=O)OCc1ccccc1 (stereo partly specified)	Ki	µM	0.015
O=C[C@H](Cc1ccccc1)NC(=O)N(CCOCc1ccccc1)Cc1ccccc1	Ki	µM	6.65
CC(C)N(CCCc1ccccc1)C(=O)N[C@H](C=O)Cc1ccccc1	Ki	µM	1.16

A: CC(C)CN(CCOCc1ccccc1)C(=O)N[C@H](C=O)C(C)C
B: CC(C)N(CCCCc1ccccc1)C(=O)N[C@H](C=O)Cc1ccccc1
Which value of Ki is numerically greater: that of A or that of B ? Answer with the label corresponding to your selection.
A
(A: 9.27 µM, B: 0.4 µM)
